For each of the compounds below, state its Growth Rate.
- Test system: U2OS
- PROTOCOL TEXT: Incucyte cell viability with U2OS; note: unitless GR value; below 1 slowed growth and below 0 cell loss
- Assay type: toxicity, cell-based
- PARTICULARS: human, 18 h, 10 µM, compound concentration 10 uM, replicate number 2, timepoint 18 hours
Reply with just the number.

Challenge: Notebook: pull reported Growth Rate for U2OS, entry COc1ccc2cc(S(=O)(=O)N[C@H](CC(=O)N[C@H](Cc3ccc(CN4[C@H](C)CCC[C@@H]4C)cc3)C(=O)N(C)C(C)C)c3ccc4c(c3)OCO4)ccc2c1.Cl
Response given: 0.57

Challenge: Notebook: pull reported Growth Rate for U2OS, entry CNC[C@H](O)c1ccc(O)c(O)c1 [EPINEPHRINE]
Response given: 0.9

Challenge: Notebook: pull reported Growth Rate for U2OS, entry Cn1cc(-c2ccc3occ(-c4cccc(-c5ccncc5)c4)c3n2)cn1
Response given: 0.09

Challenge: Notebook: pull reported Growth Rate for U2OS, entry CC(C)(C)c1ccc(-c2coc3ccc(-c4cn[nH]c4)nc23)cc1
Response given: 0.53

Challenge: Notebook: pull reported Growth Rate for U2OS, entry c1cc(OCCCN2CCCCC2)ccc1CN1CCCCC1 [JNJ-5207852]
Response given: 0.94

Challenge: Notebook: pull reported Growth Rate for U2OS, entry C[C@]1(O)CC[C@H]2[C@@H]3CCC4=CC(=O)CCC4=C3C=C[C@@]21C [METRIBOLONE]
Response given: 0.92

Challenge: Notebook: pull reported Growth Rate for U2OS, entry Cc1c(C(=O)NN2CCCCC2)nn(-c2ccc(Cl)cc2Cl)c1-c1ccc(Cl)cc1 [RIMONABANT]
Response given: 0.98

Challenge: Notebook: pull reported Growth Rate for U2OS, entry COCCn1c(C)c(C)s/c1=N\C(=O)C1C(C)(C)C1(C)C
Response given: 0.93

Challenge: Notebook: pull reported Growth Rate for U2OS, entry CN1CCN2c3ccccc3Cc3ccccc3C2C1.Cl (centres undefined) [MIANSERIN HYDROCHLORIDE]
Response given: 0.94

Challenge: Notebook: pull reported Growth Rate for U2OS, entry CC(=O)NCC(=O)N1[C@@H]2CC[C@H]1c1ccc(Nc3ncc(C(F)(F)F)c(NC4CCC4)n3)cc12 [PF-03814735]
Response given: 0.22

Challenge: Notebook: pull reported Growth Rate for U2OS, entry O=C(O)c1nc2ccccc2c2[nH]c3c(I)cccc3c12
Response given: 0.85

Challenge: Notebook: pull reported Growth Rate for U2OS, entry CCOc1c2c(c(OCC)c3ncccc13)CN(c1ccc(CS(=O)(=O)NC(=O)Cc3ccccc3OC)cc1C)C2=O
Response given: 1

Challenge: Notebook: pull reported Growth Rate for U2OS, entry Cc1nnc2n1-c1sc(CCC(=O)N3CCOCC3)cc1C(c1ccccc1Cl)=NC2 [APAFANT]
Response given: 0.75

Challenge: Notebook: pull reported Growth Rate for U2OS, entry CC(C)[C@H](C(=O)Nc1ccc(C(=O)NO)cc1)c1ccccc1 [AR-42]
Response given: 0.56

Challenge: Notebook: pull reported Growth Rate for U2OS, entry C[S+](C)[O-] [DIMETHYL SULFOXIDE]
Response given: 0.98

Challenge: Notebook: pull reported Growth Rate for U2OS, entry CC(=O)NCCc1c(Cc2ccccc2)[nH]c2ccccc12 [LUZINDOLE]
Response given: 0.76

Challenge: Notebook: pull reported Growth Rate for U2OS, entry O=c1c2cccn2c2ccccc2n1CCCN1CCC(c2ccc(Cl)cc2)CC1
Response given: 0.89

Challenge: Notebook: pull reported Growth Rate for U2OS, entry COc1ccc2nc3ccc(OC)cc3c(SCCCN)c2c1.Cl
Response given: 0.16

Challenge: Notebook: pull reported Growth Rate for U2OS, entry CN[C@@H]1C[C@H]2O[C@@](C)([C@@H]1OC)n1c3ccccc3c3c4c(c5c6ccccc6n2c5c31)C(=O)NC4 [STAUROSPORINE]
Response given: 0.69

Ref: ChEMBL document CHEMBL5058564
